List of protein stability index values.
B1: FAM98B (parent)
chain: QLDKNSEVYQEVQAMFDTLGIPKS

Variants of: B1
Experiment: protein stability index of a GFP-peptide fusion (GPS, HEK-293T) (PSI 1-6); higher = more stable;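 further: lentivirally expressed fusions sorted by FACS into six bins by GFP to DsRed ratio, PSI derived from sequencing read proportions per bin multiplied by bin number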
Details: c terminus: a fixed tail appended
reported.property: protein stability index

INSERT INTO assay_data (mutant_id, obs_value) VALUES
  ('N5W', 2.91),
  ('D3C', 2.21),
  ('K23N', 3.54),
  ('S24Y', 2.36),
  ('Y9V', 3.27),
  ('F16C', 3.38),
  ('D3W', 2.08),
  ('M15P', 3.27),
  ('L2A', 4.38),
  ('I21E', 4.21),
  ('K4A', 3.04),
  ('D17C', 2.64),
  ('Q13A', 3.58),
  ('E11N', 2.64),
  ('A14W', 2.63),
  ('G20H', 2.55),
  ('N5D', 4.66),
  ('Y9L', 3.2),
  ('T18W', 2.02),
  ('A14F', 2.64),
  ('L19Y', 3.6),
  ('Y9W', 3.31),
  ('V12N', 3.53),
  ('D17V', 2.38),
  ('N5Q', 4.22),
  ('V12T', 3.52),
  ('G20T', 3.15),
  ('T18K', 2.25),
  ('V8Q', 3.31),
  ('L2D', 4.67),
  ('E7C', 2.62),
  ('K4F', 2.93),
  ('N5Y', 2.83),
  ('P22H', 2.87),
  ('D3P', 3.11),
  ('S6M', 3.23),
  ('Y9P', 3.57),
  ('Q1R', 3.39),
  ('Q10T', 3.1),
  ('G20E', 3.77),
  ('T18M', 2.78),
  ('D17M', 2.5),
  ('V12A', 3),
  ('L19Q', 3.76),
  ('Q10I', 1.39),
  ('E11Q', 2.3),
  ('Q10G', 3.01),
  ('K23H', 3.33),
  ('E11V', 2.56),
  ('D17T', 3.12),
  ('E11L', 2.28),
  ('V8N', 3.94),
  ('V8Y', 2.96),
  ('M15S', 3.22);
